Item-by-item account of sfGFP reporter fluorescence
B1: library; numbered along this chain (parent)
chain: MNIQIGELAKRTACPVVTIRFYEQEGLLPPPGRSRGNFRLYGEEHVERLQFIRHCRSLDMPLSDVRTLLSYRKRPDQDCGEVNMLLDEHIRQVESRIGALLELKHHLVELREACSGARPAQSCGILQGLSDCVCDTRGTTAHPSD

variants of: B1; experiment: sfGFP reporter fluorescence (15 h) (µM FITC); higher = stronger transcriptional activation; details: library round: Round 0; ligand: 1 µM Pb

{"columns": ["MUT", "sfGFP reporter fluorescence"],
 "data": [
  ["F21V", 0.0608],
  ["L129K", 0.059],
  ["C134L", 0.113],
  ["I125W", 0.0596],
  ["Y71A", 0.0575],
  ["V82W", 0.0583],
  ["S144A", 0.0588],
  ["L103A", 0.0695],
  ["C114E", 0.0579],
  ["R111K", 0.0619],
  ["E109F", 0.0913],
  ["C55T", 0.0594],
  ["G128H", 0.0848],
  ["L58E", 0.0625],
  ["E47A", 0.0779]
]}
